# System: Mus musculus
# procedure_summary: Toxicity in BALB/c mouse assessed as serum total proteins level at 25 mg/kg, po after 24 hrs
# Type: organism-based
# Parameters: dose 25 mg/kg, route oral
# condition_info: in vivo
observation_type: Activity

1. O=C(N/N=C/c1ccc2c(c1)OCO2)c1nc(-c2ccc(Cl)cc2)no1: 4.75 g/dL

----------
# target: Cruzipain (Trypanosoma cruzi)
# Sequence (P25779 whole entry): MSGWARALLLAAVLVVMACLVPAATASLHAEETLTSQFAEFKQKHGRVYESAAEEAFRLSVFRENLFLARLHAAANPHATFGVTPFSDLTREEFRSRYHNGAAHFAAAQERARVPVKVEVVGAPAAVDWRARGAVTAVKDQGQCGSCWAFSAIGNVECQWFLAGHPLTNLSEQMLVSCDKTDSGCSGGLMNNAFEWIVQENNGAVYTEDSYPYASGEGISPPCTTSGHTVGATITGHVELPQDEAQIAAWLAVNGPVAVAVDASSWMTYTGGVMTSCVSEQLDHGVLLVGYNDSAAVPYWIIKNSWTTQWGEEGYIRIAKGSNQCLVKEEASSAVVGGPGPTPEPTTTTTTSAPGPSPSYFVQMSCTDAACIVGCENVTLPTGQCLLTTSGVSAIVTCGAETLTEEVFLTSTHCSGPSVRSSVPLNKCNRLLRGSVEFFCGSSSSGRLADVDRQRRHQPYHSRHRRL
observation_type: IC50

1) COc1cc(/C=N/NC(=O)c2nc(-c3ccc(Cl)cc3)no2)ccc1O: 40 nM
2) COc1cc(/C=N/NC(=O)c2nc(-c3ccc(Br)cc3)no2)ccc1O: 200 nM
3) O=C(N/N=C/c1ccc2c(c1)OCO2)c1nc(-c2ccc(Br)cc2)no1: 30 nM
